# assay: NCI Yeast Anticancer Drug Screen. Data for the rad14 strain (AID 159)
# run conditions: S. cerevisiae rad14 strain growth inhibition; at 33.0 µM; stronger effect = higher value
This is part of a sample that, as a whole, favours compounds with a hit. Of some 79,000 tested, about 15% had one in any assay.
Categories are defined by ranges of growth inhibition, namely one (below 20%), two (20% to below 80%), three (80% or more)

compound	assigned class
C[N+]1(CCCl)CC[N+](C)(CCCl)CC1 (configuration not stated)	two
CCCCCNC(=O)c1c(O)[nH]c(=S)[nH]c1=O	three
COc1cccc2c1C(=O)c1c(O)c3c(c(O)c1C2=O)C[C@@](O)(/C(C)=N\O)C[C@@H]3OC1CC(N)C(O)C(C)O1 (some centres not stated)	two
CCOC(=O)C1([Se]c2ccccc2)CCCC1=O (configuration not stated)	two
O=[N+]([O-])c1ccc(N2CCC(CCCC3CCN(c4ccc([N+](=O)[O-])cc4[N+](=O)[O-])CC3)CC2)c([N+](=O)[O-])c1	one
Nc1nnc(N)n1-n1c(N)nnc1N	one
O=C1c2ccc3ccccc3c2CCC1N1CCCCC1 (configuration not stated)	three
O=C(O)CCCc1cc(I)c(N(CCCl)CCCl)c(I)c1	two
Br[Se]c1ccccn1	three
O=[N+]([O-])c1ccc(-n2nc3ccc4c(no[n+]4[O-])c3[n+]2[O-])c([N+](=O)[O-])c1	one
CC[PH+](CC)CC.CC[PH+](CC)CC.[Au]	three
CCCCCCCCCCCCCCCCP(=O)(O)OCC(N)C(=O)O (configuration not stated)	one
C[N+](C)(C)CC1CCCC(C[N+](C)(C)C)C1=O (configuration not stated)	two
Nc1nc(N)c(-c2ccc(Cl)c(Cl)c2)c(CP(Cl)(Cl)(Cl)Br)n1	two
COC(=O)C1C2c3ccccc3C(c3ccccc32)C1C(=O)OC (configuration not stated)	one
c1ccc2cc3n[se]nc3cc2c1	one
O=C(/C=C(\c1ccccc1)N1CC1)c1ccccc1	two
Cc1cc[n+](C2=C(Nc3cccc(C(F)(F)F)c3)C(=O)c3ccccc3C2=O)cc1	one
CCc1cccc(C(C)C)c1NC1=C([n+]2ccc(C)cc2)C(=O)c2ccccc2C1=O	one
COC(=O)C1c2cc3c(c(O)c2C(O)CC1(C)O)C(=O)c1c(O)cc2c(c1C3=O)OC1OC2(C)C(O)C(N(C)C)C1O (configuration not stated)	three
O=[N+]([O-])c1cc(S(=O)(=O)F)ccc1Cl	three
CC1=C2C(=C[C@@](C)(CO)[C@@H]2O)C(=O)[C@](C)(O)C12CC2	one
CC[C@@]1(O)C[C@H](OC2CC(N(C)C)C(O)C(C)O2)c2c(O)c3c(c(O)c2[C@H]1OC1CC(N(C)C)C(O)C(C)O1)C(=O)c1cccc(O)c1C3=O (some centres not stated)	one
[N-]=[N+]=C1C(Cl)=C(Cl)C(Cl)=C1Cl	three
C[C@]12CC[C@H](O)CC1=CC[C@@H]1[C@@H]2CC[C@]2(C)C(=O)CC[C@@H]12	two
CCN(CCCl)c1cc(CN(C)C)cc(NC(=O)c2ccc(C(=O)Nc3cc(CN(C)C)cc(N(CC)CCCl)c3)cc2)c1	two
OC1CCCC2CCC[N-]C12.OC1CCCC2CCC[N-]C12.[O]=[V][OH] (configuration not stated)	three
